Reported values of inhibition for individual entries
# tgt: Alkaline phosphatase, placental type (Homo sapiens) (UniProt P05187)
# Sequence (P05187 whole entry, looked up): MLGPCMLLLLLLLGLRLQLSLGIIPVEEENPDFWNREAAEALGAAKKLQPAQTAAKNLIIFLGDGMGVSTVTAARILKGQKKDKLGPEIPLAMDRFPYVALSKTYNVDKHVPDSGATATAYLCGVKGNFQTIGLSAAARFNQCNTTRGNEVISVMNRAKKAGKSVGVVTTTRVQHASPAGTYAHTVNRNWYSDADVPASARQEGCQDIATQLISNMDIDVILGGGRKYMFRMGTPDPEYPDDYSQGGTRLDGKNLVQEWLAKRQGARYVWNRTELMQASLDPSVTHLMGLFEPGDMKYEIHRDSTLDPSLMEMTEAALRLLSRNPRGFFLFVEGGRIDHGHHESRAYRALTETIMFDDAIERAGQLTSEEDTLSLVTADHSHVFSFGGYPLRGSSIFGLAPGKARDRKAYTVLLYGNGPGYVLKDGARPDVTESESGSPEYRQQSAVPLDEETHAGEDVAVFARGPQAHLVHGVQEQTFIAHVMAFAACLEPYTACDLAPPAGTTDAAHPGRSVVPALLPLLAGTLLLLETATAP
# measurementNotes: PLAP enzyme inhibitors, biochemical, luminescence, HTS (AID 690)
# conditionDescription: purified PLAP, luminescent substrate; at 20 µM; active compounds read high
The whole screen tested about 96,000 compounds, of which about 80 (0.08%) were called active. Only a sample is shown. Results with a measured potency or affinity are listed apart.
metric: inhibition (%)

>>> experimentalvalue("Cc1ccc(C(=O)CN(C(=O)c2ccc(Cl)c(Cl)c2)N2C(=O)C3CCCCC3C2=O)cc1 (stereo unspecified)")
-10.4
>>> experimentalvalue("c1ccc(Cc2nn3c(Cn4nnc5ccccc54)nnc3s2)cc1")
15.9
>>> experimentalvalue("Cc1nc2c3cnn(-c4ccccc4)c3ncn2n1")
41.1
>>> experimentalvalue("CN1c2ccccc2C(C)(C)C12C=Nc1c(ccc3ccccc13)O2 (stereo unspecified)")
0.3
>>> experimentalvalue("CCOc1ccccc1C(=O)Nc1ccc(S(=O)(=O)N2CCOCC2)cc1")
-60.6
>>> experimentalvalue("O=C(CSc1n[nH]c(-c2ccccc2)n1)c1ccccc1")
-11.7
>>> experimentalvalue("c1ccc(Nc2ccccn2)cc1")
4.3
>>> experimentalvalue("CC1CCC/C(=N/Nc2ccc([N+](=O)[O-])cc2[N+](=O)[O-])C1 (stereo unspecified)")
21.1
>>> experimentalvalue("Cc1ccc(C)c(NC(=S)NC(NC(=O)N(C)C)C(Cl)(Cl)Cl)c1 (stereo unspecified)")
-58
>>> experimentalvalue("COc1ccc(Cn2c(CCC(=O)Nc3ccc(CC#N)cc3)nc3cccnc32)cc1")
11.1
>>> experimentalvalue("COc1ccc(CNc2n[nH]c(NCc3ccc(OC)c(OC)c3)n2)cc1OC")
-86.4
>>> experimentalvalue("CCS(=O)(=O)n1nc(-c2ccc(C)cc2)nc1N")
13.8
>>> experimentalvalue("O=C(NCc1ccc2c(c1)OCO2)C1CCCN(S(=O)(=O)c2cccc3nonc23)C1 (stereo unspecified)")
-13.3
>>> experimentalvalue("Cc1c(NC(=O)C(C)OC(=O)CNC(=O)c2ccccc2)c(=O)n(-c2ccccc2)n1C (stereo unspecified)")
5.2
>>> experimentalvalue("O=C(Cn1ccc2ccccc2c1=O)NCCC(=O)NC1CCN(Cc2ccccc2)CC1")
-48.7
>>> experimentalvalue("CCCN1/C(=C2/SC(=S)N(CC)C2=O)C=Cc2ccccc21")
11.9
>>> experimentalvalue("O=C(C[n+]1ccc(C(=O)N/N=C/c2ccc(O)cc2)cc1)c1ccccc1")
23.2
>>> experimentalvalue("C#CC(CC)(CC)NC(=O)c1c(C)noc1C")
4.5
>>> experimentalvalue("Cc1cn2c(-c3cccnc3)nnc2s1")
3.7
>>> experimentalvalue("O=C(c1cccs1)c1coc2ccc(O)c(CN3CCOCC3)c12")
-1
>>> experimentalvalue("Cc1ccc(C(=O)CSc2nc3ccccc3c(=O)[nH]2)cc1")
-27.5
>>> experimentalvalue("Cc1ccc(NC(=S)NCCC(c2ccccc2)c2ccccc2)c(C)c1")
-44
>>> experimentalvalue("CCOC(=O)Cc1csc(NC(=O)NC2(C(F)(F)F)Oc3ccc(Cl)cc3O2)n1 (stereo unspecified)")
30.3
>>> experimentalvalue("CCN1C(=O)C(O)(CC(=O)/C=C/C=C/c2ccccc2)c2ccccc21 (stereo unspecified)")
-9.7
>>> experimentalvalue("O=C(NC1(C(F)(F)F)Oc2ccccc2O1)N1CCCC1")
-7.5
>>> experimentalvalue("Cn1c(=O)c2c(nc(NCCNC(=O)c3ccco3)n2Cc2ccc(Cl)cc2Cl)n(C)c1=O")
6.4
>>> experimentalvalue("COc1cc(/C=C(\\C#N)C(=O)Nc2ccc(SC(F)F)cc2)cc(OC)c1OC")
-62
>>> experimentalvalue("O=[N+]([O-])c1ccc(C2CCCC/C2=N/OCc2ccc(F)cc2)c([N+](=O)[O-])c1 (stereo unspecified)")
25.8
>>> experimentalvalue("CCN1CCN(Cc2nc3c(c(=O)n(C)c(=O)n3C)n2Cc2cccc3ccccc23)CC1")
-34.1
>>> experimentalvalue("Cc1ccc(C(=O)Nc2nc3ccc(S(C)(=O)=O)cc3s2)s1")
1.6
>>> experimentalvalue("CC(=O)N1CCN(C(=S)c2ccc([N+](=O)[O-])cc2)CC1")
12.8
>>> experimentalvalue("CCOc1ccc(NC(N)=O)cc1OCC")
13.6
>>> experimentalvalue("O=C(Nc1cc(N2CCOCC2)ncn1)c1ccccc1")
1.3
>>> experimentalvalue("O=C(NCc1ccccc1)c1ccc(-c2ccc(F)cc2)o1")
3.6
>>> experimentalvalue("CC1(C)OC(=O)C(=CNc2ccc(F)cc2)C(=O)O1")
19.1
>>> experimentalvalue("CCN1C(=O)/C(=C2\\C=Cc3ccccc3N2CC)SC1=S")
23.5
>>> experimentalvalue("CC(=O)c1c(C(C)=O)c(C)n(-c2ccc(O)cc2)c1C")
-4.3
>>> experimentalvalue("O=C(/C(=C/c1ccc(Cl)cc1)c1nc2ccccc2[nH]1)c1cccs1")
-30.3
>>> experimentalvalue("O=C(CSc1n[nH]c(-c2ccncc2)n1)c1ccccc1")
7.6
>>> experimentalvalue("O=C(OCC(O)CN1CCCCC1)C12CC3CC(CC(C3)C1)C2 (stereo unspecified)")
-58.5
>>> experimentalvalue("CSc1cccc(NC(=O)/C=C/c2ccc(Cl)cc2)c1")
20.8
>>> experimentalvalue("Cc1cc(C)n2nc(SCc3nnc(SCc4ccccc4)s3)nc2n1")
-20.5
>>> experimentalvalue("CCOC(=O)CC1C(=O)NCCN1C(=O)c1cccc(C(F)(F)F)c1 (stereo unspecified)")
4.8
>>> experimentalvalue("CC(C)(C)c1ccc(C(=O)CSc2nc3ccccc3c(=O)[nH]2)cc1")
-9.7
>>> experimentalvalue("CSc1cccc(NC(=O)Nc2ccccc2)c1")
2.1
>>> experimentalvalue("c1ccc(Nc2cc(Nc3ccccc3)[nH]n2)cc1")
11.7
